Target: T1, GST-fused lamin 250 to 400 fragment (human lamin A/C residues 250-400) (human, UniProt P02545 250-400)
T1 construct: human lamin A/C, residues 250-400: most of coil 2 (242-385) and a C-terminal flanking region (386-400); also called GST-lamin coil 250-400; lamin C-terminal 250 to 400 fragment; source: E. coli, purified (glutathione-agarose, HiTrap Q, desalting); not shown: GST, N-terminal, kept
T1 sequence (looked up): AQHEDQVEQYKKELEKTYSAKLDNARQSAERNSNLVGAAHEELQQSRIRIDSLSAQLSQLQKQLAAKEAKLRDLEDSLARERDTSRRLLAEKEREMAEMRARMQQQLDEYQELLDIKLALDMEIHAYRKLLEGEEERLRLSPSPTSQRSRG
Test: pull-down; GST-fused coil 2C fragment (5 μM) on GSH-agarose resin with lamin N-terminal fragments (20 μM); 20 mM Tris-HCl pH 7.5, 50 mM NaCl, 1 h at room temperature; eluted with 20 mM GSH; SDS-PAGE or Phos-tag SDS-PAGE
Conditions: both partners purified
Parameter: binding result

lamin 1 to 125 fragment T19A/S22A (domain or fragment, human, UniProt P02545 1-125, looked up, also called double mutant) METPSQRRATRSGAQASSAPLAPTRITRLQEKEDLQELNDRLAVYIDRVRSLETENAGLRLRITESEEVVSREVSGIKAAYEAELGDARKTLDSVAKERARLQLELSKVREEFKELKARNTKKEG = binds
lamin 1 to 125 fragment T19D/S22D (domain or fragment, human, UniProt P02545 1-125, looked up, also called phosphorylation-mimicking dual mutant) METPSQRRATRSGAQASSDPLDPTRITRLQEKEDLQELNDRLAVYIDRVRSLETENAGLRLRITESEEVVSREVSGIKAAYEAELGDARKTLDSVAKERARLQLELSKVREEFKELKARNTKKEG = binds
lamin 1 to 125 fragment S22A (domain or fragment, human, UniProt P02545 1-125, looked up) METPSQRRATRSGAQASSTPLAPTRITRLQEKEDLQELNDRLAVYIDRVRSLETENAGLRLRITESEEVVSREVSGIKAAYEAELGDARKTLDSVAKERARLQLELSKVREEFKELKARNTKKEG = binds
